# Tested on: eight fungal species
# measurementDescription: MIC/MFC summary across the eight fungal species of Table 1
# Assay type: cell-based
# conditionLabel: read-out: Geometric mean MIC
Give log10(MIC) for every item shown.
Hi team, quick reminder: these entries are log10 of MIC (µg/mL).

CCC(C)n1ncn(-c2ccc(N3CCN(c4ccc(OCC5COC(Cn6cncn6)(c6ccc(Cl)cc6Cl)O5)cc4)CC3)cc2)c1=O (centres unmarked) | -0.30

Can you give me log10(MIC) for all of these, one by one?
1. CCCCCCCCCCN1CCC[C@H]1C(=O)N[C@H](CC(=O)OC)C(=O)OC
2. CCCCCCCCCN1CCC[C@H]1C(=O)N[C@H](CC(=O)OC)C(=O)OC
3. CCCCCCCCCCn1cc[n+](CC(O)(P(=O)(O)O)P(=O)(O)O)c1 [10-ZOL, Decyl-zoledronate]
4. CCCCCCCCCN1CCC[C@H]1C(=O)N[C@@H](CC(=O)OC)C(=O)OC
5. CCCCCCCCCCCCN1CCC[C@H]1C(=O)N[C@H](CC(=O)O)C(=O)O
6. CCCCCCCCCCCCN1CCC[C@H]1C(=O)N[C@H](CC(=O)OC)C(=O)OC

Result:
1. 1.32
2. 1.92
3. 0.08
4. 2.11
5. 2.37
6. 1.69
